Source of measurements: patent US20220406376A1

# STUDY_SYSTEM: T1, extracellular portion of human CD137 fused to a histidine-containing peptide (human, UniProt Q07011 24-186)
# T1 construct: extracellular domain; also called huCD137; His-tagged soluble human CD137
# ASSAY_OVERVIEW: SPR (BIACORE); antibody captured on anti-human Fc; huCD137 25 and 100 nM; 1:1 Langmuir
MEASURE: koff (s⁻¹)
Write the number in s⁻¹ without appending the unit.

hCD137 MAB-3 (1.2) (antibody, V domains shown, also called chCD137 MAB-3 (1.2)) VH: QVQLVQSGAEVKKPGASVKVSCKASGYTFTSYWINWVKQAPGQGLEWIGNIYPSDSYTNYNQKFKDKATITADKSTSTAYMELSSLRSEDTAVYYCTRDYGSSYSFDYWGQGTTVTVSS VL: DIQMTQSPSSLSASVGDRVTITCRPSQDISNYLNWYQQKPGGTVKLLIYYTSRLRSGVPSRFSGSGSGTDFTFTISSLQPEDIATYFCQQGDTLPYTFGQGTKLEIK :: 0.03
hCD137 MAB-3 (1.3) (antibody, V domains shown, also called chCD137 MAB-3 (1.3)) VH: QVQLVQSGAEVKKPGASVKVSCKASGYTFTSYWINWVKQAPGQGLEWIGNIYPSDSYTNYNQKFKDKATITADKSTSTAYMELSSLRSEDTAVYYCTRDYGSSYSFDYWGQGTTVTVSS VL: DIQMTQSPSSLSASVGDRVTITCRPSQDISNYLNWYQQKPDKTVKLLIYYTSRLRSGVPSRFSGSGSGTDFTFTISSLQPEDIATYFCQQGDTLPYTFGQGTKLEIK :: 0.033

GET /values?readout=koff&item= hCD137 MAB-4 (1.1) (antibody, V domains shown, also called chCD137 MAB-4 (1.1)) VH: QVQLVQSGAEVKKPGASVKVSCKASGYTFTSYWINWVRQAPGQGLEWMGNIYPSDSYTNYDQKFKDRVTMTRDTSTSTVYMELSSLRSEDTAVYYCTKSGEYGKIGYYAMDYWGQGTTVTVSS VL: DIQMTQSPSSLSASVGDRVTITCRASQDISNYLNWYQQKPDKTVKLLIYYTSRLHSGVPSRFSGSGSGTDYTLTISSLQPEDIATYFCQQGNTLPYTFGQGTKLEIK
0.0021
